tested on: HOP-92 NSCLC; experiment: NCI tumour cell line growth inhibition, 48 h
Answer not satisfied if TGI is under 20 µM, and satisfied if it is 20 µM or more.

Some entries whose results are on file:
[
  {
    "Compound": "COc1cc(C2C(C#N)=C(N)Oc3cc(O)ccc32)cc(OC)c1OC (configuration not stated)",
    "Category": "satisfied"
  },
  {
    "Compound": "OCSc1nn(CO)c(=S)s1",
    "Category": "satisfied"
  }
]

Asked: Hi team, for O=C1OC2C(O)C(=O)OC2C1O (configuration not stated) , is the recorded TGI at or above 20 µM?
Given back: satisfied

Asked: Hi team, for COc1cc([C@@H]2c3cc4c(c(O)c3C[C@H]3COC(=O)[C@@H]32)OCO4)cc(OC)c1O , is the recorded TGI at or above 20 µM?
Given back: not satisfied

Asked: Hi team, for N#Cc1c2nc3ccccc3nc2n2ccc3ccccc3c12 , is the recorded TGI at or above 20 µM?
Given back: satisfied

Asked: Hi team, for O=C(O)C(F)(OC(F)(F)C(F)(OC(F)(F)C(F)(F)C(F)(F)F)C(F)(F)F)C(F)(F)F (configuration not stated) , is the recorded TGI at or above 20 µM?
Given back: satisfied

Asked: Hi team, for CC1=CC2C(C(C)C)CC1C1C(=O)OC(=O)C21 (configuration not stated) , is the recorded TGI at or above 20 µM?
Given back: satisfied
